Hey, just so you know, these numbers are from patent US8859505B2.

biological target: human cathepsin L (Homo sapiens, UniProt P07711); experiment: Cathepsin L Ki; assay type: biochemical; conditions: H-D-Val-Leu-Lys-AMC substrate, pH5.5; read-out: Ki Cat. L
Sequence (P07711 114-333): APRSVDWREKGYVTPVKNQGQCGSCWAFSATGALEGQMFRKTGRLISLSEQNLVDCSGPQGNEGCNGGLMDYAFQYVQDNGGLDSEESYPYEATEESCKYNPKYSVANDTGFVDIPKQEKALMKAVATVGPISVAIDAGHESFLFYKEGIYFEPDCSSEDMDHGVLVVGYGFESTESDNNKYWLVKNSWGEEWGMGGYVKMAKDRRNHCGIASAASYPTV
Kindly state pKi for each of the entries shown.
Answers are plain numbers, as −log10 of the molar value.

Look over these answered cases.
compound: CCOC(=O)N[C@@H](CC1(F)CCCC1)C(=O)N[C@]1(C(=O)C(N)=O)C[C@@H](F)C1
pKi: 5.28
--
compound: CC1(C[C@H](NC(=O)c2ccc(F)cc2)C(=O)NC2(C(=O)C(N)=O)CCC2)CCCC1
pKi: 6.74
--
compound: CC(C)(C)C[C@H](NC(=O)OC(C)(C)C)C(=O)N[C@]1(C(=O)C(N)=O)C[C@@H](F)C1
pKi: 4.96
--
compound: CCOC(=O)NC(CC1(F)CCCC1)C(=O)NC1(C(=O)C(N)=O)CCC1 (stereo not shown)
pKi: 5.43
--
compound: NC(=O)C(=O)C1(NC(=O)[C@H](CC2(F)CCCC2)NC(=O)C2(C(F)(F)F)CCC2)CCC1
pKi: 4.64

For each of the compounds below, note its pKi.
1. CC(C)(C)OC(=O)NC(CC1(F)CCCC1)C(=O)NC1(C(=O)C(N)=O)CC(F)C1 (stereo not shown)
2. CC1(C[C@H](NC(=O)C2CC2)C(=O)NC2(C(=O)C(N)=O)CCC2)CCCC1
3. CC(C)(C)OC(=O)N[C@@H](CC1(F)CCCC1)C(=O)NC1(C(=O)C(N)=O)CC1
4. CC1(C[C@H](NC(=O)OC(C)(C)C)C(=O)NC2(C(=O)C(N)=O)CCC2)CCCC1
5. CC1(C[C@H](NC(=O)C(C)(C)F)C(=O)NC2(C(=O)C(N)=O)CC(F)(F)C2)CCCC1
6. CC1(C[C@H](NC(=O)C(C)(C)C(F)(F)F)C(=O)NC2(C(=O)C(N)=O)CCC2)CCCC1

Result:
1. 5.77
2. 5.74
3. 5.59
4. 5.77
5. 4.96
6. 5.52

Q: Which pKi value belongs to NC(=O)C(=O)C1(NC(=O)[C@H](CC2(F)CCCC2)NC(=O)c2ccccn2)CCC1 ?
Result: 6.15
